- TARGET DESC: UniProt:Q9NWZ3
- ASSAY NOTES: biochemical
- Assay type: biochemical
- MEASUREMENT SETUP: IRAK4 enzyme, TR-FRET (HTRF), 500 μM ATP
PROPERTY: pIC50
Give bare numbers, as −log10 of the molar value.

As a guide, the following entries are already answered.
CC(C)(O)[C@H](F)CNC(=O)c1cnc(-c2ccc3cc(C#N)cnn23)cc1NC12CCC(C(=O)N3CC(F)(F)C3)(CC1)CC2 [Example 409] :: 9.00
COC1CN(C(=O)CNC(=O)c2cnc(-c3ccc4cc(C#N)cnn34)cc2NC23CCC(O)(CC2)CC3)C1 [Example 791] :: 9.00

Given the compound CC(C)(O)[C@H](F)CNC(=O)c1cnc(-c2ccc3cc(C#N)cnn23)cc1N[C@H]1C[C@H](COC(=O)NC2CC2)C1 [Example 735] , what is its reported pIC50?
9.00

---

Kindly state IC50 for each of the entries shown.
- TARGET DESC: IRAK4 enzyme (Homo sapiens (Human), UniProt Q9NWZ3)
- Sequence (Q9NWZ3 whole entry): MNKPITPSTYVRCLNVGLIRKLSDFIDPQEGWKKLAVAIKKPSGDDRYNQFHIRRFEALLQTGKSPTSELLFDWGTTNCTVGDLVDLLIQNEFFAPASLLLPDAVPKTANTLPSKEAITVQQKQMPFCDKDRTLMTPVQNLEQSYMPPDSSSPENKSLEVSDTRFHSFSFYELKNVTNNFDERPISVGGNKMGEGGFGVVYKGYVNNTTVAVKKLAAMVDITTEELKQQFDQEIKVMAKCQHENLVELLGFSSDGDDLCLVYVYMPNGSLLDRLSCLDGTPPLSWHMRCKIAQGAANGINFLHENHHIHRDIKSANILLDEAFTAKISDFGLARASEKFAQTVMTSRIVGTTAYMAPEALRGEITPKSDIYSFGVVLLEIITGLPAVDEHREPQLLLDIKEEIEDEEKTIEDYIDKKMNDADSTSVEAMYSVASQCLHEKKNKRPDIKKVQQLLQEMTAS
- ASSAY NOTES: biochemical
- Format: biochemical
- MEASUREMENT SETUP: IRAK4 enzyme, TR-FRET (HTRF), 500 μM ATP
Give bare numbers, in nM.

As a guide, the following entries are already answered.
CC(C)(C)OC(=O)NC[C@H]1C[C@H](Nc2cc(-c3ccc4cc(C#N)cnn34)ncc2C(=O)NC[C@@H](F)C(C)(C)O)C1 :: 2
N#Cc1cnn2c(-c3cc(NC45CCC(O)(CC4)CC5)c(C(=O)NCC4COC4)cn3)ccc2c1 :: 2
N#Cc1cnn2c(-c3cc(N[C@H]4CCC[C@@H](O)C4)c(C(=O)NCC4(C#N)CC4)cn3)ccc2c1 :: 63
[2H]C([2H])([2H])NC(=O)c1cnc(-c2ccc3cc(C#N)cnn23)cc1NC12CC(NC(C)=O)(C1)C2 :: 1
CC(C)(O)[C@H](F)CNC(=O)c1cnc(-c2ccc3cc(C#N)cnn23)cc1N[C@H]1CC[C@H](NC(=O)C2(F)CC2)CC1 :: 2
CC(C)(O)[C@H](F)CNC(=O)c1cnc(-c2ccc3cc(C#N)cnn23)cc1Nc1ccc2cc[nH]c2c1 :: 2
C=CC(=O)N[C@H]1CC[C@H](NC(=O)c2cnc(-c3ccc4cc(C#N)cnn34)cc2NC2CCCC(O)C2)CC1 (stereo partly shown) :: 1
CC(C)Nc1cc(-c2ccc3cc(C#N)cnn23)ncc1C(=O)NC1CCC(S(C)(=O)=O)CC1 (stereo not shown) :: 62
CNC(=O)c1cnc(-c2ccc3cc(C#N)cnn23)cc1NC12CC(NC(=O)OC)(C1)C2 :: 1
CC(C)(O)[C@H](F)CNC(=O)c1cnc(-c2ccc3cc(C#N)cnn23)cc1Nc1ccc(O)nc1 :: 10000

Hi there! I need IC50 for each item below, if you can.
1. COC(=O)NCCNC(=O)c1cnc(-c2ccc3cc(C#N)cnn23)cc1NC12CCC(O)(CC1)CC2
2. COCC1CCC1CNc1cc(-c2ccc3cc(C#N)cnn23)ncc1C(=O)NC[C@@H](F)C(C)(C)O (stereo partly shown)
3. CC(C)(O)[C@H](F)CNC(=O)c1cnc(-c2ccc3cc(C#N)cnn23)cc1NC12CCC(C(=O)N3CCC3)(CC1)CC2

1
2
1

---

- System: TNFα
- ASSAY NOTES: cells
- Type: cell-based, human
- MEASUREMENT SETUP: Homo sapiens, Monocyte, LPS-stimulated human monocytes, TNFα content; read-out: EC50 TNF
Decide using EC50 alone. Strictly below 0.09 µM: MET. Equal to or above 0.09 µM: NOT MET.

Reference set, count: 3
COC(=O)N[C@H]1C[C@H](Nc2cc(-c3ccc4cc(C#N)cnn34)ncc2C(=O)NC[C@@H](F)C(C)(C)O)C1 [Example 455] :: NOT MET
CC(C)(F)[C@H](F)CNC(=O)c1cnc(-c2ccc3cc(C#N)cnn23)cc1N[C@H]1CCC[C@@H](O)C1 [Example 530] :: MET
CC(=O)NC12CC(Nc3cc(-c4ccc5cc(C#N)cnn45)ncc3C(=O)NC[C@@H](F)C(C)(C)O)(C1)C2 [Example 508] :: MET

Say whether its EC50 is strictly beneath 0.09 µM. Entry: CC(C)(O)[C@H](F)CNC(=O)c1cnc(-c2ccc3cc(C#N)cnn23)cc1Nc1ccc(C#N)cn1 [Example 413]
NOT MET

Say whether its EC50 is strictly beneath 0.09 µM. Entry: CC(C)Nc1cc(-c2ccc3cc(C#N)cnn23)ncc1C(=O)NCC(O)C(C)(C)O (stereo not drawn) [Example 330]
NOT MET

Say whether its EC50 is strictly beneath 0.09 µM. Entry: Cc1ccc(Nc2cc(-c3ccc4cc(C#N)cnn34)ncc2C(=O)NC[C@@H](F)C(C)(C)O)cn1 [Example 184]
MET

Say whether its EC50 is strictly beneath 0.09 µM. Entry: Cn1cnc(-c2ccc(Nc3cc(-c4ccc5cc(C#N)cnn45)ncc3C(=O)NC[C@@H](F)C(C)(C)O)cc2)n1 [Example 179]
MET

Say whether its EC50 is strictly beneath 0.09 µM. Entry: CNC(=O)C1CCC(Nc2cc(-c3ccc4cc(C#N)cnn34)ncc2C(=O)NC[C@@H](F)C(C)(C)O)CC1 (stereo partly drawn) [Example 182]
MET

Say whether its EC50 is strictly beneath 0.09 µM. Entry: COC(=O)NC12CCC(Nc3cc(-c4ccc5cc(C#N)cnn45)ncc3C(=O)NCC#N)(CC1)CC2 [Example 267]
MET

Say whether its EC50 is strictly beneath 0.09 µM. Entry: CNC(=O)c1cnc(-c2ccc3cc(C#N)cnn23)cc1NC12CC(NC(C)=O)(C1)C2 [Example 498]
MET

Say whether its EC50 is strictly beneath 0.09 µM. Entry: N#Cc1cnn2c(-c3cc(NC45CCC(O)(CC4)CC5)c(C(=O)NCc4ncco4)cn3)ccc2c1 [Example 621]
NOT MET

Say whether its EC50 is strictly beneath 0.09 µM. Entry: N#Cc1cnn2c(-c3cc(NC4COC4)c(C(=O)NCC(=O)N4CC(F)(F)C4)cn3)ccc2c1 [Example 626]
MET

Say whether its EC50 is strictly beneath 0.09 µM. Entry: CC(C)(O)[C@H](F)CNC(=O)c1cnc(-c2ccc3cc(C#N)cnn23)cc1N[C@@H]1CCC[C@H](O)C1 [Example 65]
NOT MET

Say whether its EC50 is strictly beneath 0.09 µM. Entry: CC(C)(O)[C@H](F)CNC(=O)c1cnc(-c2ccc3cc(C#N)cnn23)cc1NC1CC2(C1)CC(F)(F)C2 [Example 749]
MET
